# Tested on: MDA-MB-231;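 further: viability of the cells left after supernatant collection, read with Deep Blue dye added for 4 h, as absorbance at 570 nm minus 600 nm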
# PROTOCOL DETAILS: cell viability relative to vehicle unstimulated control (fraction); higher = more viable cells
# STATED CONDITIONS: pre-treatment time: 18 h then 24 h IFNg/TNF
cell viability values, listed per item
Reply briefly: the number, and no unit.

CC(C)=CCC[C@](C)(O[C@@H]1O[C@H](CO)[C@@H](O)[C@H](O)[C@H]1O)[C@H]1CC[C@]2(C)[C@@H]1[C@H](O)C[C@@H]1[C@@]3(C)CC[C@H](O)C(C)(C)[C@@H]3[C@@H](O[C@@H]3O[C@H](CO)[C@@H](O)[C@H](O)[C@H]3O)C[C@]12C [Ginsenoside Rg1] (compound dose: 10 uM)    0.975
O[C@@H]1[C@@H](O)[C@@H](OC/C=C/c2ccccc2)O[C@H](CO[C@@H]2OC[C@H](O)[C@H](O)[C@H]2O)[C@H]1O [Rosavin] (compound dose: 10 uM)    1
CC1OC(OC2C(CO)OC(OCC3OC(OC(=O)C45CCC(C)(C)CC4C4=CCC6C7(C)CCC(OC8OCC(O)C(O)C8O)C(C)(CO)C7CCC6(C)C4(C)CC5)C(O)C(O)C3O)C(O)C2O)C(O)C(O)C1O (centres undefined) [Hederacoside D] (compound dose: 10 uM)    0.923

Please look at the following compound next.
Please look at this compound and report its cell viability: COc1ccc(-c2cc(=O)c3c(O)c(OC)c(O[C@@H]4O[C@H](CO[C@@H]5O[C@@H](C)[C@H](O)[C@@H](O)[C@H]5O)[C@@H](O)[C@H](O)[C@H]4O)cc3o2)cc1 [Pectolinarin] (compound dose: 10 uM) 0.833
